Tested on: MDA-MB-468 breast
Experiment: NCI-60 one-dose screen, 48 h
Settings: 10 µM unless noted
About 83,000 compounds went through this panel and 20% of them were active in at least one assay; those are over-represented in the sample as a whole. Activity calls are given as the source filed them. The calls were made as follows: active = growth percent below 10; inactive = the rest.
Use one of these outcomes when replying: active, inactive

Query :: Status in this test for C=C1C(=O)O[C@H]2[C@H]1CC/C(COC(=O)N1CCC[C@H]1C(=O)Nc1ccc(OC)c(C(N)=O)c1O)=C\CC[C@@]1(C)O[C@@H]21 ?
Result :: active

Query :: Status in this test for CCCCN(CCCC)c1ccc(C(=NC(C)CCCN(CC)CC)c2ccc(N(C)C)cc2)cc1 (stereo not given) ?
Result :: active

Query :: Status in this test for CS(=O)(=O)c1ccc(-c2nn(-c3ccccc3)cc2/C=N/NC(=O)c2ccncc2)cc1 ?
Result :: inactive

Query :: Status in this test for c1cc(C2CCCCC2)ccc1OCCCCCCN1CCNCC1 ?
Result :: active

Query :: Status in this test for COc1ccc(COC(=O)CC(C)C)cc1 ?
Result :: inactive

----------
Could you please report measured growth for the items listed next?
Tested on: SF-295 CNS
Assay: NCI-60 one-dose screen, 48 h (100 = growth as untreated, 0 = no growth, -100 = all killed)
Settings: 10 µM
Procedure: Cells are grown in 96 well plates and exposed to the test compound for 48 hours. Compounds are tested at a single concentration, which is 10^-5 M for most compounds. The reported endpoint is percent growth (GI% or GIPRCNT), where numbers from 0 - 100% represent growth inhibition, and numbers from -100% - 0 represent cell death. For example, a value of 40 represents 60% growth inhibition. A value of 0 means no net growth occurred over the course of the experiment. […]
This is part of a sample that, as a whole, favours compounds with a hit. Of some 83,000 tested, about 20% had one in any assay.
Answer format: numeric, % implied, no suffix.

Query :: Please list growth recorded for the compound Cc1ccc2c(c1)C(=O)/C(=C/c1c[nH]c3ccccc13)S2
Result :: 73.2

Query :: Please list growth recorded for the compound COc1ccc(Cn2cc(C#N)c(N)c2C(C)=O)c(OC)c1
Result :: 109

Query :: Please list growth recorded for the compound O=C(CN1CCN(c2ncnc3c2cnn3-c2ccccc2)CC1)Nc1ccc(Cl)cc1
Result :: 80.3

Query :: Please list growth recorded for the compound CC1[C@H]2[C@H](C[C@H]3[C@@H]4CC=C5c6sc(Nc7cccc(Cl)n7)nc6CC[C@]5(C)[C@H]4CC[C@@]32C)O[C@]12CC[C@@H](C)CO2 (stereo partly drawn)
Result :: 109

Query :: Please list growth recorded for the compound CCOc1ccc(/C=N/NC(=O)Cn2nc(Cc3ccc(OC)cc3)c3onc(C)c3c2=O)cc1
Result :: 20.4

Query :: Please list growth recorded for the compound COc1ccc(Cc2nn(CC(=O)N/N=C/c3ccc(Br)cc3)c(=O)c3c(C)noc23)cc1
Result :: -4.74

Query :: Please list growth recorded for the compound COc1ccc(Cc2nn(CC(=O)N/N=C/c3ccc([N+](=O)[O-])cc3)c(=O)c3c(C)noc23)cc1
Result :: 92.7

Query :: Please list growth recorded for the compound Cc1cc(N=C2NC(=O)/C(=C/c3cc(C(C)(C)C)c(O)c(C(C)(C)C)c3)S2)n[nH]1
Result :: -0.721

Query :: Please list growth recorded for the compound CCOC(=O)C1=C(N)N(c2ccc(C)cc2)C2=C(C(=O)CC(C)(C)C2)C1c1ccccc1Br (stereo not drawn)
Result :: 90.5

Query :: Please list growth recorded for the compound Cc1ccc(-c2nc(C#N)c(S(=O)(=O)N3CCN(S(C)(=O)=O)CC3)o2)cc1
Result :: 155

Query :: Please list growth recorded for the compound O=C(CN1CCN(c2ncnc3c2cnn3-c2ccccc2)CC1)Nc1ccc(Br)cc1
Result :: 83

Query :: Please list growth recorded for the compound O=C(CSc1nc2ccccc2c(=O)n1-c1ccc(Cl)cc1)Nc1ccc(-c2nc3ccc([N+](=O)[O-])cc3[nH]2)cc1
Result :: 23.7

Query :: Please list growth recorded for the compound C#CCOc1cc(N(CC)CC)ccc1C(C(=O)NC(C)(C)C)N(C(=O)C1CCc2cc(F)ccc2O1)c1ccc(F)cc1F (stereo not drawn)
Result :: 33.2

Query :: Please list growth recorded for the compound COc1cccc(C(=O)CSc2nc(-c3ccc(OCc4ccccc4)c(OC)c3)c(C#N)c(=O)[nH]2)c1
Result :: 95.2

Query :: Please list growth recorded for the compound CCn1c(SCC(=O)Nc2ccc(-c3nc4ccccc4[nH]3)cc2)nc2ccccc2c1=O
Result :: -66.8

Query :: Please list growth recorded for the compound Cc1ccc(COc2ccc(NC(=O)Nc3ccc(Cl)c(C(F)(F)F)c3)cc2)cc1
Result :: 67.7

Query :: Please list growth recorded for the compound CC(C)(C)c1cc(/C=C2\S/C(=N/c3ncn[nH]3)NC2=O)cc(C(C)(C)C)c1O
Result :: 14.3

Query :: Please list growth recorded for the compound Cn1cc(-c2nnc(N)nc2-c2c[nH]c3ccccc23)c2cc(Br)cnc21
Result :: 37.2

----------
Test system: MDA-MB-468 breast
Experiment: NCI-60 one-dose screen, 48 h
Settings: 10 µM unless noted
The panel holds about 83,000 compounds, 20% with a hit somewhere; the sample as a whole holds those more often. Activity calls are given as the source filed them. How the source made its calls: active means growth percent below 10; inactive means the rest.
Use one of these outcomes when replying: active, inactive

Query :: Status in this test for CC[C@]1(O)C[C@@H]2CN(CCc3c([nH]c4ccccc34)[C@@](C(=O)OC)(c3cc4c(cc3OC)N(C)[C@H]3[C@@](O)(C(N)=O)[C@H](O)[C@]5(CC)[C@@H]6C[C@@H]6CN6CC[C@]43[C@@H]65)C2)C1 ?
Result :: inactive

Query :: Status in this test for CCOC(=O)C1=C(COCCN)NC(C)=C(C(=O)OC)C1c1ccccc1Cl (centres undefined) ?
Result :: inactive

Query :: Status in this test for CCCC(=O)NC(c1cccnc1)c1cc(C)c2cccnc2c1O (centres undefined) ?
Result :: inactive

Query :: Status in this test for COc1ccc(CNc2c3ccccc3nc3ccc(OC)cc23)cc1 ?
Result :: active

Query :: Status in this test for COc1ccccc1/C=C\C(=O)c1ccccc1 ?
Result :: inactive

Query :: Status in this test for CC(CN1CCN(CCOCCO)CC1)CN1c2ccccc2Sc2ccc(Cl)cc21 (centres undefined) ?
Result :: inactive

Query :: Status in this test for NC(CSC(c1ccccc1)(c1ccccc1)c1cccc2ccccc12)C(=O)O (centres undefined) ?
Result :: inactive

Query :: Status in this test for O=C(Nc1ccc(F)cc1)c1cc2cc(Nc3nc(-c4ccccc4)nc4ccccc34)ccc2oc1=O ?
Result :: inactive

Query :: Status in this test for Cn1nc(C(F)(F)F)cc1-c1c[nH]c(OCc2ccc(Cl)cc2)c(-c2ccc(Cl)c(C(F)(F)F)c2)c1=O ?
Result :: active

----------
Test system: MDA-MB-468 breast
Assay: NCI-60 one-dose screen, 48 h
Conditions: 10 µM unless noted
About 83,000 compounds went through this panel and 20% of them were active in at least one assay; those are over-represented in the sample as a whole. Calls of active or inactive are those of the source. How the source made its calls: active means growth percent below 10; inactive means the rest.
Use one of these outcomes when replying: t = active, f = inactive

Query :: Status in this test for Cn1cc(-c2csc(-c3cn(CCCN4CCCCC4)c4ccccc34)n2)c2cccnc21 ?
Result :: f

Query :: Status in this test for COc1cc(N2C(=O)[C@H](Cl)C2c2ccc(SC)cc2)cc(OC)c1OC (stereo not given in full) ?
Result :: t

Query :: Status in this test for O=C(/C=C/c1cn(-c2ccccc2)nc1-c1cccc(Nc2ccnc3cc(Cl)ccc23)c1)c1ccc2c(c1)OCO2 ?
Result :: f

Query :: Status in this test for COc1ccc(-c2nc(C#N)c(NCC(c3ccco3)N3CCCC3)o2)cc1 (stereo not given) ?
Result :: f

Query :: Status in this test for COc1ccc(Oc2nc(Nc3ccc(N4CCOCC4)cc3)ncc2NC(=O)c2cc(OC)cc(OC)c2)cc1 ?
Result :: f

----------
System: UACC-62 melanoma
Assay: NCI-60 one-dose screen, 48 h
Conditions: 10 µM
This is part of a sample that, as a whole, favours compounds with a hit. Of some 83,000 tested, about 20% had one in any assay. Calls of active or inactive are those of the source. Rule for the calls: active = growth percent below 10; inactive = the rest.
Use one of these outcomes when replying: active, inactive

Query :: Status in this test for C#C[C@]1(O)CC[C@H]2[C@@H]3CC=C4c5sc(Nc6ccc(N(C)C)cc6)nc5CC[C@]4(C)[C@H]3CC[C@@]21C ?
Result :: active

Query :: Status in this test for COc1cc(C2CC(c3ccc(Oc4ccc(Cl)cc4)cc3)=NN2c2nc(-c3ccc(Cl)cc3)c(C#N)c(N3CCOCC3)n2)cc(OC)c1OC (stereo not given) ?
Result :: inactive

Query :: Status in this test for COc1cccc(C(=O)CSc2nc(-c3ccc(OCc4ccccc4)c(OC)c3)c(C#N)c(=O)[nH]2)c1 ?
Result :: inactive

Query :: Status in this test for CC1[C@H]2[C@H](C[C@H]3[C@@H]4CC=C5c6sc(Nc7cccc(Cl)n7)nc6CC[C@]5(C)[C@H]4CC[C@@]32C)O[C@]12CC[C@@H](C)CO2 (stereo not given in full) ?
Result :: inactive

Query :: Status in this test for COc1ccc2[nH]cc(-c3nc(N)nnc3-c3cn(C)c4ncc(Br)cc34)c2c1 ?
Result :: inactive
